- MEASURED ON: T1, human GLP-2 receptor (human, UniProt O95838 1-553)
- T1 sequence (looked up): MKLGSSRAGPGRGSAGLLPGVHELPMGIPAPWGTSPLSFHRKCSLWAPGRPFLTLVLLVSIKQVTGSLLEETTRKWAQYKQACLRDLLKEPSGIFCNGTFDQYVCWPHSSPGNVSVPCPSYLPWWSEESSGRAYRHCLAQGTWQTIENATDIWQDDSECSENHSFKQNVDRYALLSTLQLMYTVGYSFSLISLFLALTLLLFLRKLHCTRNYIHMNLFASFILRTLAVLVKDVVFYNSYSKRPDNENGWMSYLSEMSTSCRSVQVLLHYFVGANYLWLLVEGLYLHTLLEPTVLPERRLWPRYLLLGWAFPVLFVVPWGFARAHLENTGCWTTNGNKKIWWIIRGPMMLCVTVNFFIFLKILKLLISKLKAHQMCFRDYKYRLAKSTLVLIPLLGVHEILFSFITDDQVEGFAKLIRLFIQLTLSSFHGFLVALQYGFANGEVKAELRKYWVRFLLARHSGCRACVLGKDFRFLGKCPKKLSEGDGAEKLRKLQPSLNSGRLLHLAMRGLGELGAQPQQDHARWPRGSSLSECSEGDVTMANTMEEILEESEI
- EXPERIMENT: cell-based or functional assay
EC50 (cAMP): recorded values
// units = nM; emit number, no label

HADGTFISDYSTILDNLAARDFINWLIQTKGTD [GIP-GLP-2 co-agonist 16] : 82

Query :: Which EC50 (cAMP) value belongs to HADGTFISEYSTILDNLAARDFINWLIQTKITD [GIP-GLP-2 co-agonist 15] ?
Result :: 6.7

Query :: Quick check: EC50 (cAMP) of HAEGTFISDYSTILDNLAARDFINWLIQTKITD [GIP-GLP-2 co-agonist 1] ?
Result :: 98
